Taken from ChEMBL document CHEMBL1671856.

# assayedSystem: Leucine aminopeptidase (Plasmodium falciparum 3D7)
# methodSummary: Inhibition of leucyl aminopeptidase activity in Plasmodium falciparum 3D7 at 10 uM using Leu-AMC as a substrate by spectrophotometer
readoutLabel: inhibition (%)
Express your answer in %, writing the number without its unit.

Request: Could you tell me which inhibition is on file for CCCC(C)C(N)P(=O)(O)O (stereo in doubt; D31) ?
Result: 3

Request: Could you tell me which inhibition is on file for COc1ccc(C(N)P(=O)(O)O)cc1 (racemic) ?
Result: 43

Request: Could you tell me which inhibition is on file for NC(C1CC1)P(=O)(O)O (racemic) ?
Result: 6

Request: Could you tell me which inhibition is on file for NC(CCCC1CCCCC1)P(=O)(O)O (racemic) ?
Result: 95

Request: Could you tell me which inhibition is on file for COc1ccc(C(N)P(=O)(O)O)cc1OC (racemic) ?
Result: 71

Request: Could you tell me which inhibition is on file for CC(C)C[C@H](N)P(=O)(O)O [LEUCINE PHOSPHONIC ACID] ?
Result: 15

* * *

# assayedSystem: UniProt:Q8IL11
# Sequence (whole entry): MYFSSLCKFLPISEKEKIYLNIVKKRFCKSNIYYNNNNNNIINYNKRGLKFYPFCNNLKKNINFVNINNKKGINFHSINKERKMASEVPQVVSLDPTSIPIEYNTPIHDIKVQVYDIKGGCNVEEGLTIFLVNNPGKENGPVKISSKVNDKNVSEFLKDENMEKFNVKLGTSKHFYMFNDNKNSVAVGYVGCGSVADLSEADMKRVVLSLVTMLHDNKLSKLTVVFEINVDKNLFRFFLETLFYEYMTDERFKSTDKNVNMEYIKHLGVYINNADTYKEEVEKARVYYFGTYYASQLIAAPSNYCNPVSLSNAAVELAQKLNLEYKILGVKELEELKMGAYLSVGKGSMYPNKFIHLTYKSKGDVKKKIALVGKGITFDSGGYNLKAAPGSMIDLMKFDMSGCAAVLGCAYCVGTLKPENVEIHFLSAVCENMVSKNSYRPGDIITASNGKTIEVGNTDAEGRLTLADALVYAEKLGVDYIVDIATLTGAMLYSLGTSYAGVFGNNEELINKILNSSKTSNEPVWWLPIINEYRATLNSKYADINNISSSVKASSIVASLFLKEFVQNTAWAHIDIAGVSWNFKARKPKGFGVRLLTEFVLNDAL
# methodSummary: Inhibition of leucyl aminopeptidase activity in Plasmodium falciparum 3D7 at 0.1 uM using Leu-AMC as a substrate by spectrophotometer in presence of 1 mM CoCl2
// bucketize inhibition: low class: < 20%; middle class: ≥ 20% and < 40%; high class: ≥ 40%

# count of solved cases: 10
compound	answerLabel
NC(CCCC1CCCCC1)P(=O)(O)O (racemic)	high class
COc1ccc(C(N)P(=O)(O)O)cc1O (racemic)	high class
NC(CC1CCCCC1)P(=O)(O)O (racemic)	middle class
NC(CCC1CCCCC1)P(=O)(O)O (racemic)	high class
NC(CCCCc1ccccc1)P(=O)(O)O (racemic)	middle class
CC(CCNC(=O)C(N)Cc1ccccc1)P(=O)(O)O (stereo not drawn)	low class
NC(CCc1ccccc1)P(=O)(O)Oc1ccccc1 (racemic)	low class
COc1ccc(C(N)P(=O)(O)O)cc1 (racemic)	middle class
CC(C)C[C@H](N)P(=O)(O)O [LEUCINE PHOSPHONIC ACID]	low class
N[C@@H](C1CCCCC1)P(=O)(O)O	high class

Switching to the query record.
Request: Category lookup for the compound CC(C)C[C@H](NC(=O)[C@@H](O)[C@H](N)Cc1ccccc1)C(=O)O [UBENIMEX]
Result: low class

* * *

# assayedSystem: Leucine aminopeptidase (Plasmodium falciparum 3D7) (UniProt Q8IL11)
# Sequence (whole entry): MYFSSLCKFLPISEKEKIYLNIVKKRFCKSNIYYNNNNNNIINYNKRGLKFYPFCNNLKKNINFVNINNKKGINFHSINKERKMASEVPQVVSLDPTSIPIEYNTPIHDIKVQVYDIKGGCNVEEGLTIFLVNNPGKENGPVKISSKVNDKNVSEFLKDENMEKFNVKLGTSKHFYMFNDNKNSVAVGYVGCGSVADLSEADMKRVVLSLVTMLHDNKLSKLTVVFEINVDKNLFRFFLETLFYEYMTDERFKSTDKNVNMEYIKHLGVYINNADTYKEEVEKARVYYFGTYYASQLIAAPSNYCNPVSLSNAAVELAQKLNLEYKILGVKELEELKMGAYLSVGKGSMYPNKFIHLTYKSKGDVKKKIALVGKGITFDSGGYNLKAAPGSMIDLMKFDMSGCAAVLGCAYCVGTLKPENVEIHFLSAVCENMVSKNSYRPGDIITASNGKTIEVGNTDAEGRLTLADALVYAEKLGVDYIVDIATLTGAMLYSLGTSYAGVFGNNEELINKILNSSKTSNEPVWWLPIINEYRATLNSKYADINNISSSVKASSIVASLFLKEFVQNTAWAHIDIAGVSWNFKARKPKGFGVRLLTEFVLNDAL
# methodSummary: Inhibition of leucyl aminopeptidase activity in Plasmodium falciparum 3D7 harboring tPfAP-M17 gene at 0.1 uM using Leu-AMC as a substrate by spectrophotometer in presence of 1 mM CoCl2
Rule: class 1 for inhibition not less than 50%, class 0 for anything less.

# count of solved cases: 4
compound	answerLabel
NC(CCCC1CCCCC1)P(=O)(O)O (racemic)	class 0
CC(C)C[C@H](NC(=O)[C@@H](O)[C@H](N)Cc1ccccc1)C(=O)O [UBENIMEX]	class 0
NC(CCc1ccccc1)P(=O)(O)O (racemic)	class 0
NC(CCC1CCCCC1)P(=O)(O)O (racemic)	class 1

Switching to the query record.
Request: // inclusive: inhibition at least 50%? input: NC(CCCCc1ccccc1)P(=O)(O)O (racemic)
Result: class 1

* * *

# assayedSystem: Leucine aminopeptidase (Plasmodium falciparum 3D7)
# Sequence (whole entry): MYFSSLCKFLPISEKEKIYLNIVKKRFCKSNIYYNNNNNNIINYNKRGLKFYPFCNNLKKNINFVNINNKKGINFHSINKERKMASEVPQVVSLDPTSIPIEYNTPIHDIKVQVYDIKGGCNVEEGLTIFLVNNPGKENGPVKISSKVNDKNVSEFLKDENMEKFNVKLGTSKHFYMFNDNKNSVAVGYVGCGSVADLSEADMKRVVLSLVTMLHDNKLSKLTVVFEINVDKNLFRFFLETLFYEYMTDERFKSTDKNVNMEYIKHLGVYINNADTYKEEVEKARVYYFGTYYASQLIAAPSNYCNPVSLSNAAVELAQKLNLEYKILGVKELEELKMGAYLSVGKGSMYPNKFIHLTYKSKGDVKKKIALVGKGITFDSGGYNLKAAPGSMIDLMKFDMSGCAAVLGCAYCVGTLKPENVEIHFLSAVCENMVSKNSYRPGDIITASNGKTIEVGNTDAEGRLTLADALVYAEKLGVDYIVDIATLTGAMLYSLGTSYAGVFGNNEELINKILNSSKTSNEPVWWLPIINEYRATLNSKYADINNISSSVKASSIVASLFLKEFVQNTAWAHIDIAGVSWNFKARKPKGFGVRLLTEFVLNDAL
# methodSummary: Inhibition of leucyl aminopeptidase activity in Plasmodium falciparum 3D7 at 0.1 uM using Leu-AMC as a substrate by spectrophotometer
Rule: 1 for inhibition not less than 8%, -1 for anything less.

# count of solved cases: 5
compound	answerLabel
CC(C)C[C@H](NC(=O)[C@@H](O)[C@H](N)Cc1ccccc1)C(=O)O	1
NC(CC1CCCCC1)P(=O)(O)O (racemic)	-1
CC(CCNC(=O)C(N)Cc1ccccc1)P(=O)(O)O (stereo not drawn)	-1
N[C@@H](C1CCCCC1)P(=O)(O)O	-1
NC(CCCC1CCCCC1)P(=O)(O)O (racemic)	1

Request: // inclusive: inhibition at least 8%? input: NC(CCCCc1ccccc1)P(=O)(O)O (racemic)
Result: 1

Request: // inclusive: inhibition at least 8%? input: COc1ccc(C(N)P(=O)(O)O)cc1OC (racemic)
Result: -1

Request: // inclusive: inhibition at least 8%? input: NC(CCC1CCCCC1)P(=O)(O)O (racemic)
Result: 1

Request: // inclusive: inhibition at least 8%? input: COc1ccc(C(N)P(=O)(O)O)cc1O (racemic)
Result: -1

Request: // inclusive: inhibition at least 8%? input: COc1ccc(C(N)P(=O)(O)O)cc1 (racemic)
Result: -1

Request: // inclusive: inhibition at least 8%? input: CC(C)C[C@H](N)P(=O)(O)O
Result: -1

Request: // inclusive: inhibition at least 8%? input: NC(CCc1ccccc1)P(=O)(O)O (racemic)
Result: 1

* * *

# assayedSystem: Leucine aminopeptidase (Plasmodium falciparum 3D7)
# methodSummary: Inhibition of leucyl aminopeptidase activity in Plasmodium falciparum 3D7 at 10 uM using Leu-AMC as a substrate by spectrophotometer in presence of 1 mM CoCl2
readoutLabel: inhibition (%)
Express your answer in %, writing the number without its unit.

Examples with their reported inhibition follow.
compound	readoutLabel	experimentalValue
NC(CCCC1CCCCC1)P(=O)(O)O (racemic)	inhibition	91
CC(C)C[C@H](NC(=O)[C@@H](O)[C@H](N)Cc1ccccc1)C(=O)O	inhibition	93
COc1ccc(C(N)P(=O)(O)O)cc1O (racemic)	inhibition	71

Request: Requested read-out inhibition, target or system Leucine aminopeptidase (Plasmodium falciparum 3D7), entry NC(CCc1ccccc1)P(=O)(O)Oc1ccccc1 (racemic)
Result: 73

Request: Requested read-out inhibition, target or system Leucine aminopeptidase (Plasmodium falciparum 3D7), entry NC(CCC1CCCCC1)P(=O)(O)O (racemic)
Result: 91

Request: Requested read-out inhibition, target or system Leucine aminopeptidase (Plasmodium falciparum 3D7), entry COc1ccc(C(N)P(=O)(O)O)cc1OC (racemic)
Result: 70

Request: Requested read-out inhibition, target or system Leucine aminopeptidase (Plasmodium falciparum 3D7), entry N[C@@H](C1CCCCC1)P(=O)(O)O
Result: 67

Request: Requested read-out inhibition, target or system Leucine aminopeptidase (Plasmodium falciparum 3D7), entry NC(CC1CCCCC1)P(=O)(O)O (racemic)
Result: 69

Request: Requested read-out inhibition, target or system Leucine aminopeptidase (Plasmodium falciparum 3D7), entry NC(CCc1ccccc1)P(=O)(O)O (racemic)
Result: 92

Request: Requested read-out inhibition, target or system Leucine aminopeptidase (Plasmodium falciparum 3D7), entry NC(CCCCc1ccccc1)P(=O)(O)O (racemic)
Result: 92

Request: Requested read-out inhibition, target or system Leucine aminopeptidase (Plasmodium falciparum 3D7), entry CC(CCNC(=O)C(N)Cc1ccccc1)P(=O)(O)O (stereo not drawn)
Result: 0

Request: Requested read-out inhibition, target or system Leucine aminopeptidase (Plasmodium falciparum 3D7), entry CC(C)C[C@H](N)P(=O)(O)O
Result: 52

Request: Requested read-out inhibition, target or system Leucine aminopeptidase (Plasmodium falciparum 3D7), entry COc1ccc(C(N)P(=O)(O)O)cc1 (racemic)
Result: 73
